target-under-test: human β-Secretase (soluble part, AA1-AA460; sBACE-Fc) (Homo sapiens)
Construct: The soluble part of the human β-Secretase (AA1-AA460) was cloned into the ASP2-Fc10-1-IRES-GFP-neoK mammalian expression vector; made in house
Sequence (P56817 22-460): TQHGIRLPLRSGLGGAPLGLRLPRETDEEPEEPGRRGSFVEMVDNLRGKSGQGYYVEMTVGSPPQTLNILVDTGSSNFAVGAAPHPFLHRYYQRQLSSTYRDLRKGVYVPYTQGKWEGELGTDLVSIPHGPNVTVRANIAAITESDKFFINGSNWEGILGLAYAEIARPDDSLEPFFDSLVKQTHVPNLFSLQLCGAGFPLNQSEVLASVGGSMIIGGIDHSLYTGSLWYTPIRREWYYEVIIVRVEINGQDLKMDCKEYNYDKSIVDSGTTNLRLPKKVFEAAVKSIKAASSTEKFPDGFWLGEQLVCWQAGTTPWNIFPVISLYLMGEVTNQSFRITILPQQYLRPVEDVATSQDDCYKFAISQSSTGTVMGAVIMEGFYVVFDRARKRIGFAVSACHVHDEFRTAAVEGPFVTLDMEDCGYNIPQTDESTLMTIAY
assay-procedure: TR-FRET assay
Format: biochemical
condition-context: substrate (Europium)CEVNLDAEFK(Qsy7) 100 nM, pH 4.5, 15 min at RT; read-out: IC50 (nM) in TR-FRET assay
Where a name gives a salt, the structure may show the parent alone.
attribute-measured: IC50 (nM)

- COc1ccc(C#N)c(-c2cccc(C3(c4cccc(OS(C)(=O)=O)c4)N=C(N)N(C)C3=O)c2)c1 (stereo not drawn) [Example 176, methanesulfonate hydrochloride]: 148

I: COc1ccc(C#N)c(-c2cc(C3(c4cccc(OS(C)(=O)=O)c4)N=C(N)N(C)C3=O)ccc2F)c1 (stereo not drawn) [Example 177, methanesulfonate hydrochloride]
II: CCCS(=O)(=O)Oc1cccc(C2(c3ccc(F)c(-c4cc(Cl)cc(OC)c4)c3)N=C(N)N(C)C2=O)c1 (stereo not drawn) [Example 99]
Ask | Hi, I'm comparing I with II and wondering which one has the bigger number for IC50. Any idea? Which one? Tell me its label.
Reply | II

###

target-under-test: human β-Secretase (soluble part, AA1-AA460; sBACE-Fc) (Homo sapiens)
Construct: The soluble part of the human β-Secretase (AA1-AA460) was cloned into the ASP2-Fc10-1-IRES-GFP-neoK mammalian expression vector; made in house
assay-procedure: TR-FRET assay
Type: biochemical
condition-context: substrate (Europium)CEVNLDAEFK(Qsy7) 100 nM, pH 4.5, 15 min at RT; read-out: IC50 (nM) in TR-FRET assay
Counter-ions that a name gives are not always drawn.
attribute-measured: IC50 (nM)

• COc1cccc(-c2ccnc(C3(c4ccc(OS(C)(=O)=O)cc4)N=C(N)N(C)C3=O)c2)c1 (centres unmarked) = 1350
• CN1C(=O)C(c2cccc(OS(C)(=O)=O)c2)(c2ccc(F)c(-c3cncc(F)c3)c2)N=C1N (centres unmarked) = 494
• CN1C(=O)C(c2cccc(OS(=O)(=O)c3ccc(Cl)s3)c2)(c2ccc(F)c(-c3cncnc3)c2)N=C1N (centres unmarked) = 31
• CN1C(=O)C(c2cccc(OS(C)(=O)=O)c2)(c2ccc(F)c(-c3cc(Cl)cc(Cl)c3)c2)N=C1N (centres unmarked) = 207
• CN1C(=O)C(c2ccc(OC(F)F)cc2)(c2cccc(-c3cc(Cl)cc(OS(C)(=O)=O)c3)c2)N=C1N (centres unmarked) = 28
• COc1ccc(C2(c3cccc(-c4cc(Cl)cc(OS(C)(=O)=O)c4)c3)N=C(N)N(C)C2=O)cc1C(F)(F)F (centres unmarked) = 37

I: COc1cncc(-c2cc(C3(c4ccc(OS(=O)(=O)C(F)(F)F)cc4)N=C(N)N(C)C3=O)ccc2F)c1 (centres unmarked)
II: CCc1cc(C2(c3ccc(F)c(-c4cc(OC)cc(OS(C)(=O)=O)c4)c3)N=C(N)N(C)C2=O)cc(CC)n1 (centres unmarked) [Example 209, methanesulfonate hydrochloride]
Ask | Problem: Given the entries I and II , determine which has the lower reported IC50. Give the label under which the chosen entry appears.
Reply | I
(I: 40 nM, II: 99 nM)

1: Cc1nn(C)c(Cl)c1S(=O)(=O)Oc1ccc(C2(c3ccc(F)c(-c4cccnc4)c3)N=C(N)N(C)C2=O)cc1 (centres unmarked)
2: CN1C(=O)C(c2cccc(OS(C)(=O)=O)c2)(c2cccc(-c3cnccc3Cl)c2)N=C1N (centres unmarked) [Example 170, methanesulfonate hydrochloride]
3: CCN1C(=O)C(c2ccc(OS(C)(=O)=O)cc2)(c2ccc(F)c(-c3cccc(OC)c3)c2)N=C1N (centres unmarked)
Ask | Ascending by IC50, please. Show the ranking through the labels, in the order asked for.
Reply | 1, 3, 2

I: Cc1nn(C)c(Cl)c1S(=O)(=O)Oc1cccc(C2(c3ccc(F)c(Br)c3)N=C(N)N(C)C2=O)c1 (centres unmarked)
II: COc1ccc(OC(F)(F)F)c(-c2cc(C3(c4ccc(OS(C)(=O)=O)cc4)N=C(N)N(C)C3=O)ccc2F)c1 (centres unmarked)
Ask | I'm curious whether I or II has the smaller IC50 number. Which is it? Reply briefly: the label of your chosen item.
Reply | I
(I: 129 nM, II: 349 nM)
